Test: M. tuberculosis growth inhibition, HTS (AID 449762);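 also: bacterial growth assessed after seven days of incubation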
Settings: M. tuberculosis H37Rv growth inhibition, 7H9 media; at 25 µM; hits give high values
Out of some 330,000 compounds screened, about 1,900 (0.58%) were called active. Not shown: some 4% with an inconclusive outcome. Only a sample is shown. Potency and affinity values are given separately.
endpoint-name: inhibition (%)
Give bare numbers, in %.

Guide cases for inhibition, answers given:
compound: CN(C)C(CNC(=O)c1coc2ccccc2c1=O)c1ccccc1 (stereo not given)
experimental-value: 8.82
--
compound: COc1ccc(CS(=O)(=O)/C(Cl)=C(/Cl)C(=O)Nc2ccc(OC)nc2)cc1
experimental-value: 35

I need inhibition for every entry listed below, if you could help.
1. Cc1ccc(C(C(=O)Nc2ccc3c(c2)OCO3)N(C)C(=O)Cc2c[nH]c3ccccc23)cc1 (stereo not given)
2. Cc1occc1C(=O)NN=C1C2CC3CC(C2)CC1C3
3. COc1ccccc1CCNC(=O)C(=O)Nc1cc2c3c(c1)CC(=O)N3CCC2
4. O=C(N/N=C/c1ccccn1)c1ccc(NC(=O)c2ccc(F)cc2)cc1
5. Nc1nc(SCc2c(F)cccc2Cl)[nH]c(=O)c1-c1ccccc1
6. NC(=O)c1ccccc1OCC(=O)Nc1cccnc1Cl
7. COc1cccc(Cn2c(=O)ccc3ccccc32)c1
8. CCOC(=O)C1(CCc2ccccc2)CCN(Cc2ccc(NC(C)=O)cc2)CC1

Key:
1: -1.34; 2: -8.34; 3: 57.3; 4: 2.56; 5: 3.32; 6: 2.44; 7: 7.74; 8: -6.26
